condition.notes: pH 5.4
Item-by-item account of aqueous solubility
Numeric answer only, unit µg/mL assumed.

Look over these answered cases.
CNCc1ccc(-c2[nH]c3cc(F)cc4c3c2CCNC4=O)cc1.O=P(O)(O)O [Form II] :: 3000
CNCc1ccc(-c2[nH]c3cc(F)cc4c3c2CCNC4=O)cc1.O=P(O)(O)O [Form IV] :: 4500
CNCc1ccc(-c2[nH]c3cc(F)cc4c3c2CCNC4=O)cc1.O=P(O)(O)O [Form III] :: 2700

Please turn your attention to the following entry.
State its aqueous solubility for this compound: CNCc1ccc(-c2[nH]c3cc(F)cc4c3c2CCNC4=O)cc1.O=P(O)(O)O [Form I]
2800
